- test_system: human CGT (Homo sapiens, UniProt Q16880)
- Sequence (Q16880 21-541): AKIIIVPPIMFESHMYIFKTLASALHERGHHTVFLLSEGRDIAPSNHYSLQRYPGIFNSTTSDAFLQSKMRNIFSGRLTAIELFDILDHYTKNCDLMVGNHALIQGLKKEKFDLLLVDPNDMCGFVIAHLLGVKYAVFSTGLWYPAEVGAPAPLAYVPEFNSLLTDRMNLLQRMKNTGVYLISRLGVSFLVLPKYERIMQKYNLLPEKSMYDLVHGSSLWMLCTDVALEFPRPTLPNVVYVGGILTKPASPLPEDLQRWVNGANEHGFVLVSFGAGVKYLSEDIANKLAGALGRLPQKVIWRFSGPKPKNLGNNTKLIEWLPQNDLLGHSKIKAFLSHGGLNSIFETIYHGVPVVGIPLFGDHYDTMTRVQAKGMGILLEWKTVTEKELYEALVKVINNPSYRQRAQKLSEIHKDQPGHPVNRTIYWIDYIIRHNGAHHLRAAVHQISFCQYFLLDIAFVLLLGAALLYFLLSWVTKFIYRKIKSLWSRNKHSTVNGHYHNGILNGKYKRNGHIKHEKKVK
- assay_comment: Assay 1: CGT Enzymatic Assay (RapidFire/MS/MS, 0.01% Tween 80)
- Assay type: biochemical
- run_parameters: Table 1, Compounds of Formula (I) and Formula (II); CGT enzymatic assay; read-out: IC50
pIC50: −log10 of the molar value.
# pIC50 values compiled below

Need pIC50, item CCC[C@]1(C)N(c2ccc(Cl)cc2)C(=O)N(c2ccc(Cl)cc2)C1(O)c1cccc(OC(F)(F)F)c1 (single isomer, unassigned)
> 6.00

---

Quick list: IC50 per entry.
- test_system: human CGT (Homo sapiens, UniProt Q16880)
- assay_comment: Assay 1: CGT Enzymatic Assay (RapidFire/MS/MS, 0.01% Tween 80)
- Format: biochemical
- run_parameters: Table 1, Compounds of Formula (I) and Formula (II); CGT enzymatic assay; read-out: IC50

Data request, read-out IC50, for CC1(O)C(=O)N(c2ccc(Br)cc2)C(=O)N1c1ccc(Br)cc1 (stereo not drawn)
50 to 100 µM

Would you kindly share the measured IC50 for CC[C@H]1N(c2ccc(Br)cc2)C(=O)N(c2ccc(Br)cc2)C1(O)c1ccccc1 (stereo partly drawn) ?
< 1 µM

Entry O=C1N(c2ccc(Cl)cc2)C2(CCC2)C(O)(c2cccc(OC(F)(F)F)c2)N1c1ccc(Cl)cc1 (stereo not drawn) has what IC50?
< 1 µM
